These entries and their values trace back to the supplement of paper PMC9170038.

system: MS2 coat protein; experiment: apparent KD of MS2 coat protein; designed switch direction (-1 OFF switch, 1 ON switch): -1; higher = weaker reporter binding; settings: Eterna round: R95; input ligand: microRNA oligo, concentration not stated
PROPERTY: apparent KD of MS2 coat protein (nM)
I only need the number, in nM, no unit after it.

Below are worked cases with known answers.
INSERT INTO assay_data (sequence, system_under_test, property, test_value) VALUES
  ('CUUCAUCCACCAGAGCUCACACUUAUACCUGCUCUGGUGACAUGAGGAUCACCCAUGUUUUUUGCCCGUCUUAUCUU [Sensor v3, turn-off variant 2 (MOD of Leso)] (puzzle: Sensor v3, turn-off variant 2)', 'MS2 coat protein', 'apparent KD of MS2 coat protein', 19.8),
  ('CCUCCACAUGAGGAUCACCCAUGUCAGGAUAUCGUGUGUGCGUUUUCGGUCUUUCGCGCGAGAAGGGACGACUG (puzzle: Exclusion 1)', 'MS2 coat protein', 'apparent KD of MS2 coat protein', 27.5),
  ('GGCAAUAACGAGGAUAUCCUAUGGGAAACCAUAGGAGAAGGUGUAACAUGAGGAUCACCCAUGUUCCUCAAGCC [Mat - Exclusion 6 - Eli Mod - D67] (puzzle: Exclusion 6)', 'MS2 coat protein', 'apparent KD of MS2 coat protein', 34.7),
  ('CGAUGUUAUGUCAGGAUAUGCGUUGCGAAAGCAAUGUAGAAGGGACAUGAGGAUCACCCAUGUCCUAACCAUCG [Omei A 8] (puzzle: Brourd''s mod of Exclusion 4)', 'MS2 coat protein', 'apparent KD of MS2 coat protein', 13),
  ('AAAAGGUCAGGAUAUCGACGCGGUUGGGAGGCAGGUCCGCGCGAGAAGGGACAUGAGGAUCACCCAUGUUAAAA [Excls4-IV] (puzzle: Exclusion 4)', 'MS2 coat protein', 'apparent KD of MS2 coat protein', 22.8);

# context switch: different sequence, same apparent KD of MS2 coat protein
[ask] Provide one value: measured apparent KD of MS2 coat protein of AAUGUUGAUGUGAGGAUAUACAUAGUUUGACCGUAGUAGAAGGCACAUGAGGAUCACCCAUGUAGAUGUUUGGU [JR_BME4_Sub004] (puzzle: Brourd's mod of Exclusion 4)
[reply] 12.5

----------
system: K4 kissing-loop RNA reporter; experiment: apparent KD of K4 kissing-loop reporter; higher = weaker reporter binding; details: Eterna round: R107; input ligand: theophylline 20 uM;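 further: bound reporter read as fluorescence of individual clusters on recovered sequencing chips by microscopy, with normalized cluster intensities fitted with a binding model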
Below, each entry is listed with its recorded apparent KD of K4 kissing-loop reporter.
I only need the number, in nM, no unit after it.

INSERT INTO measurements (sequence, property, test_value) VALUES
  ('CACGAUGAAUUCUCUAGGAGUGAUGUUUUUCGAGGACCGGUACGGCCGCCACUCGGACCAGGAACGUGGGAGCGGCGAAAAGACU [jbmullin]', 'apparent KD of K4 kissing-loop reporter', 500),
  ('GGGAGUAGUGCGGCCGCCACUGAGAAAGAAGAAGAAUAUAGUGAUGUUAUAUAGGAAUAAAAGAACAGGACCGGGCAUUAGAUUU [SSTRyptB.T]', 'apparent KD of K4 kissing-loop reporter', 196),
  ('AGUUCUUGCCGAAGGAGCGAGGCAGAGUGAUGUUCUGCAAGAGGUCGAAAGACCUCACUGCCUCAGGUAGGUCGCGGCAUGAACA [Omei KL Arginine B Exc A v4]', 'apparent KD of K4 kissing-loop reporter', 602),
  ('UGAUACCAGACGGCCGCCACUGCACCAGUCAAUGACUGAGUGUAGUAAUGCUCAGUGAUGUUGAGUAGGACCGGGUCUGGUAUCU [Mod of Eli''s TrypBX 8 v1]', 'apparent KD of K4 kissing-loop reporter', 122),
  ('UACAGGGAUAGUGAUGUUAUCCCAUGUGAUACCAGUGCCAUCCAACACCCUUGGCAGCAUACGGGCAGUGAUGUUGUUCUUGGUU [Exclusion Theophylline A GF 13]', 'apparent KD of K4 kissing-loop reporter', 87.1);

# context switch: different sequence, same apparent KD of K4 kissing-loop reporter
[ask] Provide one value: measured apparent KD of K4 kissing-loop reporter of AAGUGUGUGGCGGCCGCCACUAGAAUCCAGUGAUGUUGGAGAUAUCACGUAAGUGAUAUCCACCAUAGGACCGGGCCAUAUAGAA [Same State - Tryptophan B (Freestyle 13)]
[reply] 428

----------
test system: MS2 coat protein; assay: apparent KD of MS2 coat protein, switch ON state; designed switch direction (-1 OFF switch, 1 ON switch): 1; higher = weaker reporter binding; details: FMN input: 0 or 200 uM; Eterna round: R93 (includes R88 designs)
Each entry gets 0.0 if its apparent KD of MS2 coat protein stays under 30 nM, and 1.0 if its apparent KD of MS2 coat protein is 30 nM or above.

The following sequences have reported results that may help.
INSERT INTO assay_data (sequence, label) VALUES
  ('AAAGUACAUGAGGAUCACCCAUGUUGAAAAAAUCGAGGAUAUGCGAAAAAAAAAAAAAAAGCAGAAGGUGAAAAAA [I ''NO'' this state well 2]', 0.0),
  ('GAAAUAAAAACACAGGAUAUCCAAAAGAAAACAUGAGGAUCACCCAUGUAAAGAAAAUAAAAAUGGGAGAAGGGUGAAAAUAAAG [Mat - Same State 2 - JL mod - D25]', 0.0),
  ('UAUCAUUACACGAAGGAUAUCGAUAAUUGAACAUGAGGAUCACCCAUGUGACAUAUCUUACAGUUCGAGAAGGUCGAGGGUGAAG [JR_SS002_Sub706]', 0.0),
  ('AGAAGACAUGAGGAUCACCCAUGUGGGAAUAUGGGAGGAUAUACAAAGACGAGAGUCAGAGUAGAAGGCCUAGGAA [salish99-SS1-091(!)]', 1.0),
  ('AAAUAUAAAAGAUAGGAUAUACUAAAAUAAACAUGAGGAUCACCCAUGUAAAAAAAAAAACUCAUGUAGAAGGAUCAAAUAUAAA [ss2 8th]', 1.0);

[ask] Is the recorded value of apparent KD of MS2 coat protein equal to or greater than 30 nM for this sequence? AUAAAUAAAAUCGAGGAUAUCCAAUAAUAAACAUGAGGAUCACCCAUGUAAAAGAAAAUAUAAUGGGAGAAGGCGAAUAAUAAAU [JR_SS002_Sub1701]
[reply] 0.0

[ask] Is the recorded value of apparent KD of MS2 coat protein equal to or greater than 30 nM for this sequence? CCCAAUGCAACGAAGGAUAUCCGUCAUGCCACAUGAGGAUCACCCAUGUACUGGCGGCACAAGACGGAGAAGGUCGGGUGCUGUG [Quenrean]
[reply] 0.0

[ask] Is the recorded value of apparent KD of MS2 coat protein equal to or greater than 30 nM for this sequence? AGGCAACAUGAGGAUCACCCAUGUCGCAACAAUCAAGGAUAUGGGAGAAAUAAGAAAAUACCAGAAGGUGAAAUAA [Telelabe]
[reply] 1.0

[ask] Is the recorded value of apparent KD of MS2 coat protein equal to or greater than 30 nM for this sequence? AACAAUCUAUCUGAGGAUAUGUGUCGAAAGACAUGAGGAUCACCCAUGUAAAAACAUGAAAAAUCACAGAAGGCAGAUAGAUUGA [SS2: 1144]
[reply] 1.0

[ask] Is the recorded value of apparent KD of MS2 coat protein equal to or greater than 30 nM for this sequence? AAGAAACAUGAGGAUCACCCAUGUGAUAAUAUGGGAGGAUAUACAAAGACGAAAGUCGAAGUAGAAGGCCUAUGAA [Garnet 43]
[reply] 1.0

----------
system: MS2 coat protein; experiment: apparent KD of MS2 coat protein; designed switch direction (-1 OFF switch, 1 ON switch): 1; higher = weaker reporter binding; settings: input ligand: microRNA oligo, concentration not stated
Below, each entry is listed with its recorded apparent KD of MS2 coat protein.

INSERT INTO measurements (sequence, property, test_value) VALUES
  ('GCUGCGAUUAACGCCUACAUGAGGAUCACCCAUGUAUGUAGGCAGGAUAUCGUUUGCUUUGCAAACGAGAAGGGCUGUAGUAGC [salish99_SSNG3_R04_004] (Eterna round: R96, puzzle: Same State NG 3)', 'apparent KD of MS2 coat protein', '0.0684 µM');

[ask] Provide one value: measured apparent KD of MS2 coat protein of GCGAGGAUAUGCAGAGGAUCACCCUGUAGAAGGCGCAAAAGCGAGGAUAUGCAGAGGAUCACCCUGUAGAAGGCGCACUACUCU [pwkr ssNG3 DX 2xF5 +2xFMN.4] (Eterna round: R96, puzzle: Same State NG 3)
[reply] 0.161 µM

[ask] Provide one value: measured apparent KD of MS2 coat protein of GUGGUCAGACAUGAGGAUCACCCAUGUGGAAUAAAUAAGGGACAGGAUAUCUAAUAUAGGAUAUAAGAGAAGGGUUGGUUGGUG (Eterna round: R96, puzzle: Same State NG 3)
[reply] 0.0448 µM

[ask] Provide one value: measured apparent KD of MS2 coat protein of UUAAUGAUGUAAGGAUAUACAUGAGGAUUUCUCGUAGAAGGUACAAGACAUGAGGAUCACCCAUGUGUCGCUCAAUAGAGCGUA [Mat - Same State NG 1 - JL mod - D19] (Eterna round: R96, puzzle: Same State NG 1)
[reply] 0.138 µM
